# system: human beta klotho / human FGFR1c receptor complex on cells (human, UniProt Q86Z14 1-1044; P11362 22-822)
# Sequence (Q86Z14 whole entry, chain 1 of 2): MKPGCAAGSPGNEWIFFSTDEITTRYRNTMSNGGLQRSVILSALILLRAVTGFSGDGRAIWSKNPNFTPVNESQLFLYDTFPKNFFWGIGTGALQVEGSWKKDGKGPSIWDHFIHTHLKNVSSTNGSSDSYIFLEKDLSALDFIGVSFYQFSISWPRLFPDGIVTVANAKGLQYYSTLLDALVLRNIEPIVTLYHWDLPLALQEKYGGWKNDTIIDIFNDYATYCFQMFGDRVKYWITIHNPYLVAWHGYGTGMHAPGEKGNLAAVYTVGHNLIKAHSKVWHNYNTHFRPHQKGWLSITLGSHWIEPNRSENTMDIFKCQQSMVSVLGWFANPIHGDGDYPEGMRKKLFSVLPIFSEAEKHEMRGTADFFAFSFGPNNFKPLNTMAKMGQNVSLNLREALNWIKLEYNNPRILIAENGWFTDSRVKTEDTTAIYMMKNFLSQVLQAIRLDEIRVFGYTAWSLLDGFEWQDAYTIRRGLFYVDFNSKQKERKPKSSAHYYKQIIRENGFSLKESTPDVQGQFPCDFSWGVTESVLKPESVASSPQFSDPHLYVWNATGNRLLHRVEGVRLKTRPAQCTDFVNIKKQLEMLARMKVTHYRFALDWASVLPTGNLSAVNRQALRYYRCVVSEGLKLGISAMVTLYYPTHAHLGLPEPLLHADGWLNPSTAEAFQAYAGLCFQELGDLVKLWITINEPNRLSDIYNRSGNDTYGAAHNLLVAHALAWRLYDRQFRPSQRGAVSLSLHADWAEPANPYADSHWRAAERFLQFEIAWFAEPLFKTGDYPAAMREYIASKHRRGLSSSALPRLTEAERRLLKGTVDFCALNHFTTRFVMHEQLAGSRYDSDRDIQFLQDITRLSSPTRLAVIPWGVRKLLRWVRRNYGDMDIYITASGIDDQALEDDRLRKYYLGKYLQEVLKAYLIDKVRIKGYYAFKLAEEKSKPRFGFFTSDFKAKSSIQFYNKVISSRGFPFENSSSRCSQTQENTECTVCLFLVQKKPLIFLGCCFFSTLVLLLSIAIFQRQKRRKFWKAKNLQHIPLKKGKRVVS
# Sequence (P11362 22-822 limits assumed, chain 2 of 2): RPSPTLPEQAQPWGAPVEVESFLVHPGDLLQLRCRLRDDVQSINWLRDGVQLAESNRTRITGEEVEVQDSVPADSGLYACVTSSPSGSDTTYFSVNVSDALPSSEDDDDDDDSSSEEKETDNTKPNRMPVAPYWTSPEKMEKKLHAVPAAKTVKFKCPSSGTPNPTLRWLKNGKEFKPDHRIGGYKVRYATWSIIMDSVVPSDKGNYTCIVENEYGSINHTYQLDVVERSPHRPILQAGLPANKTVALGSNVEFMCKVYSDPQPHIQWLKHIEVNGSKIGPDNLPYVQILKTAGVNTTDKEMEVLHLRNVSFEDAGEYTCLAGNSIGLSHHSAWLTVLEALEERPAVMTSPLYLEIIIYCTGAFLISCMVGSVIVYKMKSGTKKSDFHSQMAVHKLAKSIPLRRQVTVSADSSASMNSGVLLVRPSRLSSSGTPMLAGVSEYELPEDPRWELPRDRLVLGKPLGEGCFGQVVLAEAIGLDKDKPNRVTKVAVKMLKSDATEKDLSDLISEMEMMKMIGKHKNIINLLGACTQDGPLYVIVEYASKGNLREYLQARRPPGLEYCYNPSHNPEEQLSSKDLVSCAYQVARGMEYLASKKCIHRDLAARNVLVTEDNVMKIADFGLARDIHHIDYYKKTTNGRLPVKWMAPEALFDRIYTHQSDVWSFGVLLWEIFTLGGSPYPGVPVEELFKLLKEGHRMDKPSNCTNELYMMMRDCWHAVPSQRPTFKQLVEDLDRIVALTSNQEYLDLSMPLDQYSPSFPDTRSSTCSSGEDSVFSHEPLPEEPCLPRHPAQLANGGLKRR
# assay notes: cell-based or functional assay
measured property: HEK293 huKLB/R1c reporter assay EC50, Experiment - A (nM)
Numbers only; they are read as nM.

| binder | numeric result |
| --- | --- |
| antibody 3L3 (antibody, V domains shown, Murine monoclonal antibody) VH: QVQPQESGPELVKPGTLVKISCKASGYTFTSYDINWVKQRPGQGLEWIGWIYPGDGSPKYDEKFKGKATLTADKSSSTAYMQLSSLTSENSAVYFCARSDYYGSRSFVYWGQGTLVTVSA VL: DIVLTQSPASLAVSLGQRATISCRASKSVSTSGYSYVHWYQQKPGQPPKLLIYLASNLESGVPARFSGRGSGTDFTLNIHPVEEEDAATYYCQHSGELPYTFGGGTKLEIK | 0.773 |
| antibody 4P5 (antibody, V domains shown, Murine monoclonal antibody) VH: QVQLQQSGPELVKPGALVKISCKASGYTFTRYDINWVKKRPGQGLEWIGWIYPGDDSTKYNEKFKGKATLTADKSSSTAYMQLSSLTSENSAVYFCARSDYYGSRSFVYWGQGTLVTVSA VL: DILLTQSPASLAVSLGQRATISCRASKSVSTSGYSYMHWYQQKPGQPPKLLIYLASNLESGVPARFSGRGSGTDFTLNIHPVEEEDAATYYCHHSGELPYTFGGGTKLEIK | 0.6 |

Would you kindly look at the next entry?
Measured HEK293 huKLB/R1c reporter assay EC50, Experiment - A, antibody 2L12 (antibody, V domains shown, Murine monoclonal antibody) VH: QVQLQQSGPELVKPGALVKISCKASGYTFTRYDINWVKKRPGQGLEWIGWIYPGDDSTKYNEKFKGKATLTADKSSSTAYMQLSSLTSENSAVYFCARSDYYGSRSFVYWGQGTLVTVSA VL: DIVLTQSPASLPVSLGQRATISCRASKSVSTSGYSYLHWYQQKPGQPPKLLIYLASNLESGVPARFSGSGSGTDFTLNIHPVEEEDAATYYCQHSGELPYTFGGGTKLEIK : 0.373

Entry source: patent US20210030857A1
